B1: PTPRD (parent)
chain: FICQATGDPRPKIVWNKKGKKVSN

Variants of: B1
assayName: protein stability index of a GFP-peptide fusion (GPS, HEK-293T) (PSI 1-6); higher = more stable;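 also: lentivirally expressed fusions sorted by FACS into six bins by GFP to DsRed ratio, PSI derived from sequencing read proportions per bin multiplied by bin number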
conditionsUsed: c terminus: a fixed tail appended
Property: protein stability index; scope: individual variants
Response field accepts a number only; no unit should be typed.

Some entries whose results are on file:
> print(dat)
   sequencechange  numericresult
1            G19D           1.71
2            W15L           2.16
3             P9D           2.14
4            R10M           2.58
5             P9I           2.21

protein stability index for K18Y is 1.94

protein stability index for S23I is 1.84

protein stability index for F1Y is 2.26

protein stability index for D8P is 1.8

protein stability index for N16R is 1.96

protein stability index for K12Y is 1.41
